The measurements presented in this section are drawn from patent US20150158934A1.

# TGT: T1, CA018 gp140/420 (A/G) (HIV-1)
# T1 construct: also called gp120 of CA18
# ASSAY_OVERVIEW: SPR
pKd: −log10 of the molar value.
Mark condition met for reported pKd of 8 or greater; mark condition not met for anything smaller.

Observe how each entry below is paired with its result.
1) L82B4F (VHH, Family member of L81H9; tags not written into the chain) VHH: EVQLVESGGGLVQAGGSLRLSCAASGFTSDDYAIGWFRRAPGKEREGVSYISIEDGSTYSADSVKGRFTISSDYAKNTVYLQMNGLKPEDTAVYYCAAAILGDSVRWLQEYDYDYWGQGTQVTVSS
condition not met
2) L91H9 (VHH, Purified by IMAC; tags not written into the chain) VHH: EVQLVESGGGLVQAGGSLRLSCAVSGATFDDYAIGWFRQAPGKEREGVSYIGCNDGSTYYAGSVKGRFTISCDYAKNTVYLQMNSLKPEDTAVYYCAAAAQWATIRWIHEYDYDTWGQGTQVTVSS
condition not met

Exercise: Kindly determine if pKd recorded for L91F10 (VHH, Purified by IMAC; tags not written into the chain) VHH: EVQLVESGGGLVQPGGSLTLSCVASGFTLDGYAIGWFRQAPGKEVESVSCITGRHGTIYYADSVMGRFTISRDNAKSTVYLQMNSLKPEDTAVYYCAADGFDTPCVAGTDWQYDYWGQGTQVTVSS is above or exactly 8.
Solution: condition met
